System: HeLa
Experiment: Cytotoxicity against human HeLa cells after 48 hrs by CCK-8 assay
Format: functional, cell-based
MEASURED_PARAMETER: IC50 (nM)
Just the number please, in nM, no unit attached.

Dear colleague, I am looking for the recorded IC50 of the following compound: COc1cc([C@@H]2c3cc4c(cc3[C@@H](O[C@@H]3O[C@@H]5CO[C@@H](C)O[C@H]5[C@H](O)[C@H]3O)[C@H]3COC(=O)[C@H]23)OCO4)cc(OC)c1O [ETOPOSIDE]
40400

Dear colleague, I am looking for the recorded IC50 of the following compound: COc1cc([C@@H]2c3cc4c(cc3C[C@H]3COC(=O)[C@@H]32)OCO4)cc(OC)c1OC(=O)[C@@H](NC(=O)Cn1cc(F)c(=O)[nH]c1=O)C(C)C
1230

Dear colleague, I am looking for the recorded IC50 of the following compound: COc1cc([C@@H]2c3cc4c(cc3C[C@H]3COC(=O)[C@@H]32)OCO4)cc(OC)c1OC(=O)[C@H](C)NC(=O)Cn1cc(F)c(=O)[nH]c1=O
200
